Entry source: PubChem BioAssay (NCI)

test summary: NCI Yeast Anticancer Drug Screen. Data for the sgs1 mgt1 strain (AID 161);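 also: 0% = growth of cultures given vehicle only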
reported conditions: S. cerevisiae sgs1 mgt1 strain, hits give high values; at 50.0 µM unless noted
This is part of a sample that, as a whole, favours compounds with a hit. Of some 79,000 tested, about 15% had one in any assay.
measure: growth inhibition (%)
Enter your answer as a number in %; do not include the unit.

Cc1ccc(C(C)C)cc1NC(=O)c1ccc([N+](=O)[O-])cc1; 16.9
CC(=O)OC1CC(n2cc(F)c(=O)[nH]c2=O)OC1CO (configuration not stated); -10.4
COc1nc(NC2OC(COC(C)=O)C(OC(C)=O)C(OC(C)=O)C2OC(C)=O)c(N=CC=Nc2c(NC3OC(COC(C)=O)C(OC(C)=O)C(OC(C)=O)C3OC(C)=O)nc(OC)[nH]c2=O)c(=O)[nH]1 (configuration not stated); -2.65

What the record says about CCCC1([N+](=O)[O-])c2ccccc2-c2ccc([N+](=O)[O-])cc21 (configuration not stated) : growth inhibition is 22.4

Form field growth inhibition, entry CCOC(=O)C1=C(O)C[C@]2(O)C3CC=C(C)[C@@H]4CCO[C@](OC)(C[C@H]2C1)[C@]34C(=O)OC (some centres not stated) : 8.35

Lab note: O=C(O)CNOCN1C(=O)c2ccccc2C1=O gave growth inhibition of 13.3

O=C(O)c1ccc(P(=O)(O)O)cc1[N+](=O)[O-] has a reported growth inhibition of -9.45

Form field growth inhibition, entry O=S(=O)([O-])[O-].O=c1[nH]cnc2[nH]ncc12.O=c1[nH]cnc2[nH]ncc12.[Zn+2] : -15.9

Lab note: measured growth inhibition of O=C(c1cccs1)N(C(=S)N1CCN(c2ccccc2)CC1)C1CCCCC1 was -8

Please fill in: growth inhibition reported for CCCCCCCCCCCCN1CCCC(O)C1 (configuration not stated) = 74.4

Per the records, this molecule ( CC1CC(C)NC(=S)N1 (configuration not stated) ) has growth inhibition equal to -9.85

Form: molecule = COC(=O)/C=C/c1cccnc1 ; growth inhibition = -36.1

###

test summary: NCI Yeast Anticancer Drug Screen. Data for the sgs1 mgt1 strain (AID 161);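 also: 0% = growth of cultures given vehicle only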
reported conditions: S. cerevisiae sgs1 mgt1 strain, hits give high values; at 50.0 µM unless noted
Compounds without any hit were thinned out: in the full panel of roughly 79,000, 15% have a hit.
Listing of entries alongside the reported growth inhibition.
// return numeric value only (unit: %, not printed)

Query C/C=C1\CC2C=CC1C2 (configuration not stated) (tested in a mixture with another compound) yields growth inhibition of 3.25

response.value for S=c1[nH]nc(-c2n[nH]c3ccccc23)o1 (field: growth inhibition) = 5.9

###

test summary: NCI Yeast Anticancer Drug Screen. Data for the mec2-1 strain (AID 157)
reported conditions: S. cerevisiae mec2-1 strain, hits give high values; at 50.0 µM unless noted
Description: Growth inhibition of yeast strains with defined genetic alterations is measured as a screen for potential anti-cancer activity. Selected strains with alterations in DNA damage repair or cell cycle control were exposed to compounds and growth inhibition was measured relative to vehicle treated controls. The strain used in this assay is mec2-1
The panel holds about 79,000 compounds, 15% with a hit somewhere; the sample as a whole holds those more often.
measure: growth inhibition (%)
Report the value in % with no unit label.

CC(NC(C#N)CC12CC3CC(CC(C3)C1)C2)c1ccccc1 (stereo not given); -11.4

According to the records, this compound CN(C)C(=NN=C(N(C)C)N(C)C)N(C)C displays growth inhibition of -4.2

Summary for this compound, CC(C)(C)C(C)(C)SSC(C)(C)C(C)(C)C : growth inhibition is 12.4

Looking up CCC[CH2][Sn]1([CH2]CCC)[O]C2C(CO)OC(n3c(Br)c(C#N)c4c(N)ncnc43)C2[O]1 (stereo not given) , I see its growth inhibition listed as 98.5

###

Entries annotated with measured growth inhibition
test summary: NCI Yeast Anticancer Drug Screen. Data for the mlh1 rad18 strain (AID 175)
reported conditions: S. cerevisiae mlh1 rad18 strain growth inhibition, hits give high values; at 50.0 µM unless noted
This is part of a sample that, as a whole, favours compounds with a hit. Of some 79,000 tested, about 15% had one in any assay.
Quick reminder: number only, in %, skip the unit.

The value of growth inhibition measured for the compound COc1ccc2c3c(ccc2c1)[C@@H]1C/C(=C(\OC(C)=O)C(F)(F)F)C(=O)[C@@]1(C)CC3 turned out to be 20.3

compound CN(/C(=C/C(=O)c1ccccc1)C(=O)c1ccccc1)/C(=C/C(=O)c1ccccc1)C(=O)c1ccccc1 , growth inhibition observed: 26.8

Lab note: OCC(O)Cc1ccccc1 (stereo unspecified) gave growth inhibition of 5.05

Input CNC(=O)C(C)NC(=O)C(Cc1ccccc1)NC(=O)c1ccccc1 (stereo unspecified) . Output growth inhibition: -11.7

Looking up CC(O)C(C(=O)O)N(CC1(O)OCC(O)C(O)C1O)N=O (stereo unspecified) , I found its growth inhibition recorded as -7.45

Memo: CC(C)(O)C#CC(C)(C)O , reported growth inhibition: -11.7

In plain terms, COc1ccc2nc3cc(Cl)ccc3c(Nc3ccccc3-c3ccccc3Nc3c4ccc(Cl)cc4nc4ccc(OC)cc34)c2c1 has a documented growth inhibition of -27.8

Record summary for Cc1ccccc1C(=O)C[n+]1ccccc1C : reported growth inhibition = 8.3

CC[N+]1(CN2CCCCC2)CCCCC1 has a reported growth inhibition of 37.6

Query CN=C1CC2c3cc(OC)c(OC)cc3CCN2C2=C1C(=O)CC(C)(C)C2 (stereo unspecified) yields growth inhibition of 16.6

###

test summary: NCI Yeast Anticancer Drug Screen. Data for the cln2 rad14 strain (AID 165);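 also: 0% = growth equal to vehicle treated cultures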
reported conditions: S. cerevisiae cln2 rad14 strain, hits give high values; at 50.0 µM unless noted
Method: Growth inhibition of yeast strains with defined genetic alterations is measured as a screen for potential anti-cancer activity. Selected strains with alterations in DNA damage repair or cell cycle control were exposed to compounds and growth inhibition was measured relative to vehicle treated controls. The strain used in this assay is cln2 rad14
The panel holds about 79,000 compounds, 15% with a hit somewhere; the sample as a whole holds those more often.
In this section, each of the compounds is paired with its reported growth inhibition.
Could you give me the number in %? Just the number is fine.

Previously resolved entries follow.
CN1C(=O)C(c2c[nH]c3ccccc23)N(C)C(=O)C1c1c[nH]c2ccccc12 (centres undefined); -20.1
O=C1CCCc2ccc3c(c21)CC1(Cc2cc4c(cc2C1)CCCC4)C3; -13.9

The value of growth inhibition measured for the compound CCCCC(CC)C(O)P(=O)(O)O (centres undefined) turned out to be -14.3

Consider C=C1C=C2CCC3C(CCC4(C)C(C(C)CCCC(C)C)CCC34)C2(C)CC1 (centres undefined) . Its measured growth inhibition is 60.6

Value of measured growth inhibition for the entry CC1CCCC(CC(=O)O)(CC(=O)O)C1 (centres undefined) : -29.3

Input [S-]c1n[n+](-c2ccccc2)cs1 . Output growth inhibition: -5.25

###

test summary: NCI Yeast Anticancer Drug Screen. Data for the rad50 strain (AID 155);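 also: 0% = growth of vehicle-only cultures of the same strain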
reported conditions: S. cerevisiae rad50 strain growth inhibition, hits give high values; at 50.0 µM unless noted
This is part of a sample that, as a whole, favours compounds with a hit. Of some 79,000 tested, about 15% had one in any assay.
Given measured growth inhibition, output Fulfilled if it is greater than or equal to 20% and Not fulfilled if not.

CCCCCCC(=O)OCC(=O)c1ccc(Br)cc1; Not fulfilled
COc1ccc(N2CC[N+](c3ccc(N(C)C)cc3)=C2C2=[N+](c3ccc(N(C)C)cc3)CCN2c2ccc(OC)cc2)cc1; Not fulfilled
Cc1nc(-c2ccc(N=Cc3ccc(N4CCC5(CCCCC5)CC4)cc3)cc2)cs1; Fulfilled
NN1CCN(CCO)CC1; Not fulfilled

Entry Fc1ccc(/C=C2/c3cc(Cl)ccc3-c3c(Cl)cc(Cl)cc32)cc1 : is its growth inhibition no less than 20%? Fulfilled

###

test summary: NCI Yeast Anticancer Drug Screen. Data for the cln2 rad14 strain (AID 165);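 also: 0% = growth equal to vehicle treated cultures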
reported conditions: S. cerevisiae cln2 rad14 strain, hits give high values; at 50.0 µM unless noted
Compounds without any hit were thinned out: in the full panel of roughly 79,000, 15% have a hit. Where a SMILES comes first, the peptide text is derived from it. [ ]: non-standard residue; d: D form. The star is where a group is joined. ξ: configuration not given here. ξF = NC(Cc1ccccc1)C(=O)O; Cbz = O=C(OCc1ccccc1)*; Aib = CC(C)(N)C(=O)O
measure: growth inhibition (%)
Give the number; % is assumed, so skip it.

Here is how some compounds turned out for growth inhibition.
COC(=O)C(C)(C)NC(=O)C(Cc1ccccc1)NC(=O)C(C)(C)NC(=O)OCc1ccccc1 (configuration not stated) (Cbz-[Aib]-[ξF]-[Aib]-OMe); 23.1
CCOc1nc(=O)n(C2OC(CO)C(O)C2O)s1 (configuration not stated); -34.1
CC(C)CN(CC(C)C)C(=O)c1ccccc1; 8.85
CC1=NN(C(=O)c2ccccc2O)C(=O)/C1=C/c1ccccc1O; -9.7
CCOC(=O)C/C(O)=C(/C=N/C(=S)NNC(C)=O)C(=O)OCC; 2.65

Per the record, CCCCCCCCCCSCC(=O)O has growth inhibition of -3.3

// growth inhibition value for COC(=O)C1CCC(=O)N1Cc1cccs1 (configuration not stated) : 22.1

Form: compound = O=C(O)c1nc2ccccc2nc1C(=O)O ; growth inhibition = -17.6
